Tested on: HCT-116
Assay: NCI tumour cell line growth inhibition, 48 h
Active and inactive are the calls of the source. Cut-off read from the data, not from the text of the source: active = GI50 up to about 1.1 µM and inactive = higher.
Attribute: GI50
OBSERVABLE: GI50

- O=C(N/N=C/c1ccc2c(c1)CCC2)c1ccccc1O: 19.4 µM (inactive)
- CNc1ccc(Cl)cc1S(=O)(=O)c1ccccc1[N+](=O)[O-]: > 10 µM (inactive)
- NNC(=O)c1nnn(CCc2ccccc2)c1C(=O)NN: > 100 µM (inactive)
- CN1CCCCC1CCN1c2ccccc2Sc2ccc([S+](C)[O-])cc21 (configuration not stated): > 100 µM (inactive)
- COC(=O)C(Cc1ccc(Oc2cc(CC(NC(=O)c3ccccc3)C(=O)OC)ccc2OC)cc1)NC(=O)c1ccccc1 (configuration not stated): 30.3 µM (inactive)
- COc1ccc(C(=O)Cc2ccc(Cl)cc2)cc1OC: > 100 µM (inactive)
- CSc1ncnc2c1ncn2CCC(=O)O: > 100 µM (inactive)
- O=[N+]([O-])c1ccc2ncccc2c1CCc1c([N+](=O)[O-])ccc2ncccc12: > 100 µM (inactive)
- Oc1ncc(Cl)c(O)n1: > 100 µM (inactive)
- CC(C)(C)OC(=O)N1CCC(C(=O)O)CC1: > 100 µM (inactive)
- CC(C)CCC(=O)c1ccoc1: > 100 µM (inactive)
- Cc1c(/C=N/NC(=O)c2ccccc2)c(=O)n(-c2ccccc2)n1C: > 100 µM (inactive)
- CC(=O)NNc1nc(C)c(C(=O)NNC(=O)C(=O)Nc2cccc(C(C)=O)c2)s1: 31.8 µM (inactive)
- O=C(O)/C(=C\c1ccccc1)Cc1ccccc1: > 100 µM (inactive)
- Cc1ccc2c(c1)OC1Nc3ccccc3C1=C2O (configuration not stated): 24.8 µM (inactive)
- COc1ccc(C2C(C)C(=O)C(C)C(c3ccc(OC)cc3)N2N=O)cc1 (configuration not stated): 127 µM (inactive)
- COc1ccc(NC(=O)/C(=N\NC(=O)C[n+]2ccccc2)c2c(O)c3ccc(O)cc3oc2=O)c([N+](=O)[O-])c1: > 100 µM (inactive)
- Nc1nc(N)c2c(n1)NC(=O)c1c(c3ccccc3n1Cc1ccc(Cl)cc1)C2: 23.6 µM (inactive)
- CC(C)(Oc1ccc(Cl)cc1)C(=O)N(C(=O)N1CCN(c2ccccc2)CC1)c1ccccc1: 4.06 µM (inactive)
- CCCCCCCC/C=C\CCCCCCCC(=O)OC[C@]1(CO)CCC(=O)O1: > 100 µM (inactive)
- c1ccc(-c2cc(-c3cccs3)c(-c3cccs3)o2)cc1: 50.7 µM (inactive)
- O=C(O)/C=C\C(=O)Nn1c(Cc2ccc(Cl)cc2)n[nH]c1=O: > 100 µM (inactive)

* * *

Test system: KM-20L2
Assay: NCI tumour cell line growth inhibition, 48 h
The source made the active and inactive calls. No stated cut-off is given here; in the data, active = GI50 up to about 1.1 µM and inactive = higher.
Reported GI50 values follow for various compounds
OBSERVABLE: GI50

- COc1cccc2c1C(=O)c1c(O)c3c(c(O)c1C2=O)C[C@@](O)(C(C)O)C[C@@H]3OC1CC(N)C(O)C(C)O1 (some centres undefined): 3.24 µM (inactive)
- C=CCOC(=O)C1CCC(=O)N1C(=O)C(Cl)Cl (centres undefined): > 100 µM (inactive)
- C=C1C(=O)O[C@@H]2C[C@@H](C)[C@@H]3C=CC(=O)[C@@]3(C)[C@@H](O)[C@H]12: 1.73 µM (inactive)
- O=C(NC12CC3CC(CC(C3)C1)C2)C(=O)c1c[nH]c2ccc([N+](=O)[O-])cc12: 36.5 µM (inactive)

* * *

Attribute: GI50
Test system: UACC-257
Assay: NCI tumour cell line growth inhibition, 48 h
Activity calls are given as the source filed them. Rule as the data show it: active = GI50 up to about 1.1 µM and inactive = higher.
OBSERVABLE: GI50

- O=[N+]([O-])c1nccn1COCCBr: > 100 µM (inactive)
- O=C(CCCN1CCC(Nc2ccc(F)cc2)(c2nnnn2C2CCCCC2)CC1)c1ccc(F)cc1: 21.3 µM (inactive)
- O=C(/C=C/c1cccs1)c1ccc(Cl)s1: 39.8 µM (inactive)
- C=CCNC1=C(C(=O)OCC)C(=O)CO1: > 100 µM (inactive)
- c1ccc(COC2(OCc3ccccc3)CC3OC2C2NN=NC32)cc1 (stereo unspecified): 18.5 µM (inactive)
- C=C1CC2(CC(c3ccccc3OC)OC(c3ccccc3OC)C2)OC1=O (stereo unspecified): 2.07 µM (inactive)
- COC(=O)CNC(=O)CCC(C)[C@H]1CCC2C3C(C[C@H](OC(C)=O)[C@@]21C)[C@@]1(C)CCC2(C[C@H]1C[C@H]3OC(C)=O)OOC1(CCCCC1)OO2 (stereo partly specified): 6.31 µM (inactive)
- Nc1c(O)c(C(=O)O)cc2ccccc12: 17.3 µM (inactive)
- CC1=C(c2cc(C(=O)Nc3cc(C)ccc3C)nc(N)n2)Sc2ccccc2N1: > 100 µM (inactive)
- CC(=O)OCC(C)C1=C(OC(C)=O)C(=O)C2(C)C/C=C(/C)CC/C=C(\C)CCC(OC(C)=O)C(C)CCC12 (stereo unspecified): 17.5 µM (inactive)
- CC(C)=CCC/C(C)=C/CCC(C(=O)COCc1ccccc1)P1(=O)OC(C)(C)CN1C(C)(C)C (stereo unspecified): 84.1 µM (inactive)
- N#CCCN(CCC#N)c1ccc(/C=C2\N=C(c3ccccc3)N(c3ccc(Cl)cc3)C2=O)cc1: > 100 µM (inactive)
- N#Cc1ccccc1NC(=O)C(=O)C1NC(=S)NC1=O (stereo unspecified): > 100 µM (inactive)
- COc1cc(OC)c(C2c3cc4c(cc3OC(N3CCOCC3)C2C)OCO4)c(OC)c1 (stereo unspecified): 78.7 µM (inactive)
- COc1cc(Br)c(CC2(C#N)c3ccccc3C3C(N2C(=O)c2ccccc2)C3(Cl)Cl)cc1OC (stereo unspecified): 15.8 µM (inactive)
- c1ccc(N/N=N/c2ccc(-c3nc4ccccc4o3)cc2)nc1: 29.7 µM (inactive)
- CCOC(=O)C1S/C(=N/c2ccc(Cl)cc2C)N=C1C (stereo unspecified): 22.2 µM (inactive)
- CC(C(=O)c1ccccc1)C1(O)C(=O)Nc2ccccc21 (stereo unspecified): > 100 µM (inactive)
- CC(C)(C)n1c(=O)n(-c2ccccc2)n(C(C)(C)C)c1=O: > 100 µM (inactive)
- C=CS(=O)(=O)c1c2cc(OC)ccc2nc2ccc(OC)cc12: 7.53 µM (inactive)
- Cc1ccc(-c2c(C#N)c(-c3ccc(C)cc3)n(NS(=O)(=O)c3ccccc3)c(=O)c2C#N)cc1: 86.1 µM (inactive)

* * *

System: PC-3
Experiment: NCI tumour cell line growth inhibition, 48 h
Calls of active or inactive are those of the source. Rule as the data show it: active = GI50 up to about 1.1 µM and inactive = higher.
// reported GI50 for each item listed
OBSERVABLE: GI50

* Cc1ccc2c(c1)OC1Nc3ccccc3C1=C2O (stereo not drawn) | 16.3 µM (inactive)
* C=C1CC[C@@]2(C)[C@@H]([C@@H]1C)[C@H]1CC[C@@H]3[C@@]4(C)CC[C@H](O)C(C)(C)[C@@H]4CC[C@@]3(C)[C@]1(C)C[C@@H]2O | 2.86 µM (inactive)
* COc1ccc(NC(=O)/C(=N\NC(=O)C[n+]2ccccc2)c2c(O)c3ccc(O)cc3oc2=O)c([N+](=O)[O-])c1 | > 100 µM (inactive)
* CC1(C)COC(/C=C/C2=NC(C)(C)CO2)=N1 | 17.5 µM (inactive)
* CC(C)C(NCc1c(O)ccc2c(-c3ccccc3)cc(=O)oc12)C(=O)O (stereo not drawn) | > 100 µM (inactive)
* COc1ccc(C(O)c2ccc3c(c2)OCO3)cc1 (stereo not drawn) | > 100 µM (inactive)
* CC(C)=CCC/C(C)=C/CCC(C(=O)COCc1ccccc1)P1(=O)OC(C)(C)CN1C(C)(C)C (stereo not drawn) | 39.3 µM (inactive)
* COc1cc(C(=O)N(C(=O)N2CCCCC2)c2ccccc2)cc(OC)c1OC | > 100 µM (inactive)
* O=C1c2ccccc2C(=O)N1C(=S)c1ccccc1 | > 100 µM (inactive)
* COC(=O)c1ccccc1CC(Cc1ccc2c(c1)CCC2)C(=O)OC (stereo not drawn) | 93.3 µM (inactive)
* NCCC1(N)CCNCC1 | > 100 µM (inactive)
* CCOC(=O)Nc1ccc(C)c(NC(=O)OCC)c1 | > 100 µM (inactive)
* COC(=O)C1(Cc2ccc3c(c2)CCC3)Cc2ccccc2C1=O (stereo not drawn) | 7.69 µM (inactive)
* O=[N+]([O-])c1ccc(/C=N/n2c(S)nnc2CCc2nnc(S)n2/N=C/c2ccc([N+](=O)[O-])o2)o1 | 82.6 µM (inactive)
* O=C(CCc1ccccc1)On1c(-c2ccccc2)nc2ccccc2c1=S | 4.73 µM (inactive)
* CC(=O)Nc1ccc(NCC(=O)Nn2cnc3ccc(S(=O)(=O)Nc4ccc(NC(C)=O)cc4)cc3c2=O)cc1 | > 100 µM (inactive)
* C=CCc1cc(-c2cc(CC=C)c(O)c(CN(CC)CC)c2)cc(CN(CC)CC)c1O | 40.2 µM (inactive)
* Fc1ccc(C(=C2CCN(CCc3ccc4[nH]c(=S)[nH]c4c3)CC2)c2ccc(F)cc2)cc1 | 2.73 µM (inactive)
